# drug sensitivity score per record follows
System: DU-4475
Assay: drug sensitivity score (DSS), CellTox Green (DSS (AUC-based score)); higher = stronger drug effect (viability inhibition or cytotoxicity); extreme values may be limits of the assay
Conditions: incubation time: 72 h
measurement.kind: drug sensitivity score

INSERT INTO measurements (compound, system_name, measurement_kind, measured_result) VALUES
  ('CC1=C2C[C@H]3[C@@H](CC=C4C[C@@H](O)CC[C@@]43C)[C@@H]2CC[C@]12O[C@@H]1C[C@H](C)CN[C@H]1[C@H]2C', 'DU-4475', 'drug sensitivity score', 0),
  ('CC[C@@H]1C(=O)OC[C@@H]1Cc1cncn1C', 'DU-4475', 'drug sensitivity score', 0),
  ('C[C@]12CC[C@@H]3c4ccc(OC(=O)N(CCCl)CCCl)cc4CC[C@H]3[C@@H]1CC[C@@H]2O', 'DU-4475', 'drug sensitivity score', 0),
  ('Oc1ncnc2[nH]ncc12', 'DU-4475', 'drug sensitivity score', 0),
  ('Cc1ccc([N+](=O)[O-])cc1S(=O)(=O)N(C)/N=C/c1cnc2ccc(Br)cn12', 'DU-4475', 'drug sensitivity score', 7.23);

* * *

Test system: MFM-223
Test: normalised response (% of control), CellTiter-Glo; higher = more viable cells (100 = DMSO, 0 = benzethonium chloride kill control)
Conditions: incubation time: 72 h
measurement.kind: normalised response (%)

INSERT INTO assay_data (compound, unit_of_measure, measured_result) VALUES
  ('Cn1cc(C2=Nc3cc(NC(=O)C(N)C4CCCCC4)cc4c3C2=CNNC4=O)cn1 (stereo not given) (1000 nM)', '%', 46.4),
  ('Cc1ccc([N+](=O)[O-])cc1S(=O)(=O)N(C)/N=C/c1cnc2ccc(Br)cn12 [PIK-75] (1000 nM)', '%', 7.31),
  ('CC(C)(C)c1cnc(CSc2cnc(NC(=O)C3CCNCC3)s2)o1 [SNS-032] (1000 nM)', '%', 18.9),
  ('O=C1CN2Cc3c(ccc(Cl)c3Cl)N=C2N1 [Anagrelide] (1000 nM)', '%', 102),
  ('Cc1sc2c(c1C)C(c1ccc(Cl)cc1)=N[C@@H](CC(=O)OC(C)(C)C)c1nnc(C)n1-2 [(+)JQ1] (10 nM)', '%', 108),
  ('O=C1CN2Cc3c(ccc(Cl)c3Cl)N=C2N1 [Anagrelide] (10 nM)', '%', 99.2),
  ('CC1(C)CNc2cc(NC(=O)c3cccnc3NCc3ccncc3)ccc21 [Motesanib] (1000 nM)', '%', 91),
  ('O=C1CN2Cc3c(ccc(Cl)c3Cl)N=C2N1 [Anagrelide] (1 nM)', '%', 98.8),
  ('Nc1nc2[nH]cnc2c(=S)[nH]1 [Thioguanine] (10 nM)', '%', 97.2),
  ('CC1(C)CCC(CN2CCN(c3ccc(C(=O)NS(=O)(=O)c4ccc(NCC5CCOCC5)c([N+](=O)[O-])c4)c(Oc4cnc5[nH]ccc5c4)c3)CC2)=C(c2ccc(Cl)cc2)C1 [ABT-199] (1 nM)', '%', 96.8),
  ('CC[C@@H]1C(=O)OC[C@@H]1Cc1cncn1C [Pilocarpine] (4 nM)', '%', 101),
  ('COc1cc(F)c(F)c(Nc2ccc(I)cc2F)c1NS(=O)(=O)C1(C[C@H](O)CO)CC1 [Refametinib] (1000 nM)', '%', 75.9),
  ('CC(=O)c1c(C)c2cnc(Nc3ccc(N4CCNCC4)cn3)nc2n(C2CCCC2)c1=O [Palbociclib] (1 nM)', '%', 90.3),
  ('Oc1ncnc2[nH]ncc12 [Allopurinol] (1 nM)', '%', 105),
  ('Nc1ncn([C@@H]2O[C@H](CO)[C@@H](O)[C@H]2O)c(=O)n1 [Azacitidine] (1 nM)', '%', 104);

* * *

System: BT-549
Assay: drug sensitivity score (DSS), CellTox Green (DSS (AUC-based score)); higher = stronger drug effect (viability inhibition or cytotoxicity); extreme values may be limits of the assay
Conditions: incubation time: 72 h
measurement.kind: drug sensitivity score

INSERT INTO assay_data (molecule, system_name, measurement_kind, measured_result) VALUES
  ('C[C@]1(O)C[C@@H](c2nc(-c3ccc4ccc(-c5ccccc5)nc4c3)c3c(N)nccn32)C1 [Linsitinib]', 'BT-549', 'drug sensitivity score', 0),
  ('CC(=O)O[C@@]12CO[C@@H]1C[C@H](O)[C@@]1(C)C(=O)[C@H](O)C3=C(C)[C@@H](OC(=O)[C@H](O)[C@@H](NC(=O)OC(C)(C)C)c4ccccc4)C[C@@](O)([C@@H](OC(=O)c4ccccc4)[C@H]21)C3(C)C [Docetaxel]', 'BT-549', 'drug sensitivity score', 11.4),
  ('Nc1nc2[nH]cnc2c(=S)[nH]1 [Thioguanine]', 'BT-549', 'drug sensitivity score', 0),
  ('COc1cc2c(cc1O)CC[C@@H]1[C@@H]2CC[C@]2(C)[C@@H](O)CC[C@@H]12 [2-methoxyestradiol]', 'BT-549', 'drug sensitivity score', 0.838),
  ('CC(=O)c1c(C)c2cnc(Nc3ccc(N4CCNCC4)cn3)nc2n(C2CCCC2)c1=O [Palbociclib]', 'BT-549', 'drug sensitivity score', 0),
  ('CC(=O)N(O)CCCCCNC(=O)CCC(=O)N(O)CCCCCNC(=O)CCC(=O)N(O)CCCCCN [Deferoxamine]', 'BT-549', 'drug sensitivity score', 0),
  ('CC(C)(C)c1cnc(CSc2cnc(NC(=O)C3CCNCC3)s2)o1 [SNS-032]', 'BT-549', 'drug sensitivity score', 7.86),
  ('Cc1sc2c(c1C)C(c1ccc(Cl)cc1)=N[C@@H](CC(=O)OC(C)(C)C)c1nnc(C)n1-2 [(+)JQ1]', 'BT-549', 'drug sensitivity score', 0),
  ('Cn1cnc2c(F)c(Nc3ccc(Br)cc3Cl)c(C(=O)NOCCO)cc21 [Selumetinib]', 'BT-549', 'drug sensitivity score', 0);

* * *

System: MDA-MB-231
Assay: normalised response (% of control), CellTiter-Glo; higher = more viable cells (100 = DMSO, 0 = benzethonium chloride kill control)
Conditions: incubation time: 72 h
measurement.kind: normalised response (%)

INSERT INTO measurements (molecule, measurement_kind, measured_result) VALUES
  ('Cc1ccc([N+](=O)[O-])cc1S(=O)(=O)N(C)/N=C/c1cnc2ccc(Br)cn12 [PIK-75] (10 nM)', 'normalised response', 88.9),
  ('Cc1sc2c(c1C)C(c1ccc(Cl)cc1)=N[C@@H](CC(=O)OC(C)(C)C)c1nnc(C)n1-2 [(+)JQ1] (1000 nM)', 'normalised response', 77.2),
  ('Nc1nc2[nH]cnc2c(=S)[nH]1 [Thioguanine] (1000 nM)', 'normalised response', 50.7),
  ('O=NN(CCCl)C(=O)NCCCl [Carmustine] (1 nM)', 'normalised response', 98.2),
  ('CC(=O)N(O)CCCCCNC(=O)CCC(=O)N(O)CCCCCNC(=O)CCC(=O)N(O)CCCCCN [Deferoxamine] (1000 nM)', 'normalised response', 86.8),
  ('Cn1cc(C2=Nc3cc(NC(=O)C(N)C4CCCCC4)cc4c3C2=CNNC4=O)cn1 (stereo not drawn) (1000 nM)', 'normalised response', 63.7),
  ('COc1cc(F)c(F)c(Nc2ccc(I)cc2F)c1NS(=O)(=O)C1(C[C@H](O)CO)CC1 [Refametinib] (1 nM)', 'normalised response', 100),
  ('CC(=O)c1c(C)c2cnc(Nc3ccc(N4CCNCC4)cn3)nc2n(C2CCCC2)c1=O [Palbociclib] (1 nM)', 'normalised response', 91.6);

* * *

Tested on: DU-4475
Assay: drug sensitivity score (DSS), CellTiter-Glo (DSS (AUC-based score)); higher = stronger drug effect (viability inhibition or cytotoxicity); extreme values may be limits of the assay
Conditions: incubation time: 72 h
Some molecules, each annotated with its measured drug sensitivity score.
measurement.kind: drug sensitivity score

INSERT INTO results (molecule, measured_result) VALUES
  ('CC(=O)c1c(C)c2cnc(Nc3ccc(N4CCNCC4)cn3)nc2n(C2CCCC2)c1=O [Palbociclib]', 0),
  ('C[C@]12CC[C@@H]3c4ccc(OC(=O)N(CCCl)CCCl)cc4CC[C@H]3[C@@H]1CC[C@@H]2O [Estramustine]', 0),
  ('O=C1CN2Cc3c(ccc(Cl)c3Cl)N=C2N1 [Anagrelide]', 0),
  ('CC1=C2C[C@H]3[C@@H](CC=C4C[C@@H](O)CC[C@@]43C)[C@@H]2CC[C@]12O[C@@H]1C[C@H](C)CN[C@H]1[C@H]2C [Cyclopamine]', 0),
  ('Cn1cnc2c(F)c(Nc3ccc(Br)cc3Cl)c(C(=O)NOCCO)cc21 [Selumetinib]', 19.9),
  ('COc1cc(F)c(F)c(Nc2ccc(I)cc2F)c1NS(=O)(=O)C1(C[C@H](O)CO)CC1 [Refametinib]', 26.1),
  ('C[C@]1(O)C[C@@H](c2nc(-c3ccc4ccc(-c5ccccc5)nc4c3)c3c(N)nccn32)C1 [Linsitinib]', 0);
